# systemName: T1, human neuropeptide Y2 (NPY2) receptor (human, UniProt P49146 1-381)
# T1 sequence (looked up): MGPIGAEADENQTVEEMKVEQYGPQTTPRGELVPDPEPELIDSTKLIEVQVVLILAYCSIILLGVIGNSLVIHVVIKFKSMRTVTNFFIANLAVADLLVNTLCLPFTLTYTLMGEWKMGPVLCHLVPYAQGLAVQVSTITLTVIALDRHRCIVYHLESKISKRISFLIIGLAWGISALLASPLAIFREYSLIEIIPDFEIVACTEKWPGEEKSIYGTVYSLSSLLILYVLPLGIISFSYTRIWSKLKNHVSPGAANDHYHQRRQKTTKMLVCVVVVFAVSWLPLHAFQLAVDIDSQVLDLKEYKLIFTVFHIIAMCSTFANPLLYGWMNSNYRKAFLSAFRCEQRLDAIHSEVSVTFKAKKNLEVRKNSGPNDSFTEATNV
# methodSummary: cell-based or functional assay
Starred links: 1 amine or outer side, 2 acyl side, 3 side chain; linkers in the order of their positions; H or OH if unused. Non-standard residues stand in square brackets, D forms with d. Groups on a side chain read outwards from the residue. No end group written: not given here. *: point of attachment. C20 diacid = O=C(O)CCCCCCCCCCCCCCCCCCC(=O)*; γGlu = O=C(O)[C@H](CCC(=O)[*:2])N[*:1]; εLys = N[C@@H](CCCCN[*:1])C(=O)[*:2]; AEEA = NCCOCCOCC(=O)O; Aib = CC(C)(N)C(=O)O
Can you tell me EC50, CreLuc assay, 0.5% hP for the items I'm about to list?
Numbers only, in nM.

{"binder": "Y[Aib]EGTFTSDYSI[Aib]LEKQAQ[Aib]EFVQWLIK([εLys-γGlu-γGlu-γGlu-γGlu-γGlu-γGlu-γGlu-C20 diacid])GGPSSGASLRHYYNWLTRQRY-NH2 (also: TFA salt) [Compound 43]", "EC50, CreLuc assay, 0.5% hP / nM": 13.1}

Provide the reported EC50, CreLuc assay, 0.5% hP of each entry below, same order.
1. YXEGTFTSDYSIXLEKQAQXEFVQWLIKGGPSSGASLRHYYNWLTRQRY (Aib at 2, 13, 20; K28 side chain: C20DA-gGlu-gGlu-gGlu-gGlu-gGlu-OEG-OEG; C-terminal NH2) [Compound 36]
2. YXEGTFTSDYSIXLEKQAQXAFVQWLIKGGQSSYASLRHYYNWLTRQRY (Aib at 2, 13, 20; K28 side chain: C20DA-gGlu-gGlu-gGlu-gGlu-gGlu-Glu-eLys; C-terminal NH2) [Compound 22]

1. 8.03
2. 8.06

Below are 2 binders. Give each one its EC50, CreLuc assay, 0.5% hP.
1. Y[Aib]EGTFTSDYSI[Aib]LEEQAQ[Aib]AFVQWLIK([εLys-AEEA-γGlu-γGlu-γGlu-γGlu-γGlu-C20 diacid])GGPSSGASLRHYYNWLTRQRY-NH2 (also: TFA salt) [Compound 45]
2. YXEGTFTSDYSIXLAAAAQXAFVEWLIKGGPSSGASLRHYYNWLTRQRY (Aib at 2, 13, 20; K28 side chain: C20DA-gGlu-gGlu-gGlu-gGlu-gGlu-gGlu-eLys; C-terminal NH2) [Compound 20]

17.2
19.1

Where do the numbers come from? From patent US20240247080A1.
